- assay.system: unrelated Fc-fused recombinant protein
- assay.remarks: ELISA, lysate on plate-bound antigen
measurement.name: ELISA Fc Control (RSU)

[[record]]
binder = "ISOP121FR5P1H9 (designed binder, not shown: small tags and cut ends, FN3 domain; E. coli lysate in the ELISA) LPAPKNLVVSRVTEDSARLSWTAPDAAFDSFSILYGETAPIGEAIVLTVPGSERSYDLTGLKPGTEYVVYIQGVKGGNYSQPLSAIFTT"
data_value = 720

[[record]]
binder = "ISOP194AR9P1C3 (designed binder, not shown: small tags and cut ends, FN3 domain; E. coli lysate in the ELISA) LPAPKNLVVSRVTQNSARLSWEWLEHFDSFLIHYQESEKVGEAIVLTVPGSERSYDLTGLKPGTEYTVSIYGVYQRKVEFHSNPLSAIFTT"
data_value = 56400

[[record]]
binder = "ISOP121BR5P1H6 (designed binder, not shown: small tags and cut ends, FN3 domain; E. coli lysate in the ELISA) LPAPKNLVVSRVTEDSARLSWGYIDVSYFDSFLIQYQESEKVGEAIVLTVPGSERSYDLTGLKPGTEYTVSIYGVYSRPKAEFTSNPLSAIFTT"
data_value = 1440

[[record]]
binder = "ISOP194BR9P1F7 (designed binder, not shown: small tags and cut ends, FN3 domain; E. coli lysate in the ELISA) LPAPKNLVVSRVTEDSARLSWFNADEEYFDSFLIQYQESEKVGEAIVLTVPGSERSYDLTGLKPGTEYTVSIYGVYTRGRYEWRESNPLSAIFTT"
data_value = 1920

